Sourced from the supplement of paper PMC8975748

system: Saccharomyces cerevisiae BY4741 SeMeCo community; assay: z-score of prototroph abundance vs DMSO median; higher = larger share of this subpopulation than in DMSO controls; settings: 10 µM; 24 h; SM minimal medium; subpopulation (auxotrophy): Prototroph
Structures can show the parent of a compound that is named as a salt.
Readout type: z-score of prototroph abundance
Keep the answer to the number alone.

# Compound, Readout type, Reported value
measured = [
    ("CC(C(=O)O)c1cccc(C(=O)c2ccccc2)c1 (configuration not stated)", "z-score of prototroph abundance", -0.62),
    ("CC1=C(C(=O)OC(C)C)C(c2cccc([N+](=O)[O-])c2)C(C(=O)OC2CN(C(c3ccccc3)c3ccccc3)C2)=C(N)N1 (configuration not stated)", "z-score of prototroph abundance", -0.48),
    ("Nc1nc2[nH]cc(CCc3ccc(C(=O)N[C@@H](CCC(=O)O)C(=O)O)cc3)c2c(=O)[nH]1 [Pemetrexed Disodium Hydrate]", "z-score of prototroph abundance", 3.18),
    ("C[C@@H](O)[C@H]1C(=O)N2C(C(=O)OCOC(=O)C(C)(C)C)=C(SC3CN(C4=NCCS4)C3)[C@H](C)[C@H]12", "z-score of prototroph abundance", 0.66),
    ("Cc1ncc([N+](=O)[O-])n1C", "z-score of prototroph abundance", 0.38),
    ("CN1CCN(c2cc3c(cc2F)c(=O)c(C(=O)O)cn3-c2ccc(F)cc2)CC1 [Difloxacin hydrochloride]", "z-score of prototroph abundance", 0.85),
]

z-score of prototroph abundance of COc1cc(N)c(Cl)cc1C(=O)NC1CCN(CCCOc2ccc(F)cc2)CC1OC (configuration not stated) [Cisapride hydrate] on Saccharomyces cerevisiae BY4741 SeMeCo community?
-0.46

# iterate: C[C@H]1c2cccc(O)c2C(O)=C2C(=O)[C@]3(O)C(O)=C(C(N)=O)C(=O)[C@@H](N(C)C)[C@@H]3[C@@H](O)[C@@H]21 [Doxycycline monohydrate]
0.75

And what about the compound O=C1N=C(O)NC1(c1ccccc1)c1ccccc1 [Phenytoin Sodium] ?
-0.72
